target: full-length beta-Catenin (Uniprot ID P35222) (Homo sapiens (Human)) (UniProt P35222); assay: fluorescence polarization competition; 10 nM full-length beta-catenin, competitor 10 nM 5FAM-TCF4(10-53)
Sequence (P35222 whole entry): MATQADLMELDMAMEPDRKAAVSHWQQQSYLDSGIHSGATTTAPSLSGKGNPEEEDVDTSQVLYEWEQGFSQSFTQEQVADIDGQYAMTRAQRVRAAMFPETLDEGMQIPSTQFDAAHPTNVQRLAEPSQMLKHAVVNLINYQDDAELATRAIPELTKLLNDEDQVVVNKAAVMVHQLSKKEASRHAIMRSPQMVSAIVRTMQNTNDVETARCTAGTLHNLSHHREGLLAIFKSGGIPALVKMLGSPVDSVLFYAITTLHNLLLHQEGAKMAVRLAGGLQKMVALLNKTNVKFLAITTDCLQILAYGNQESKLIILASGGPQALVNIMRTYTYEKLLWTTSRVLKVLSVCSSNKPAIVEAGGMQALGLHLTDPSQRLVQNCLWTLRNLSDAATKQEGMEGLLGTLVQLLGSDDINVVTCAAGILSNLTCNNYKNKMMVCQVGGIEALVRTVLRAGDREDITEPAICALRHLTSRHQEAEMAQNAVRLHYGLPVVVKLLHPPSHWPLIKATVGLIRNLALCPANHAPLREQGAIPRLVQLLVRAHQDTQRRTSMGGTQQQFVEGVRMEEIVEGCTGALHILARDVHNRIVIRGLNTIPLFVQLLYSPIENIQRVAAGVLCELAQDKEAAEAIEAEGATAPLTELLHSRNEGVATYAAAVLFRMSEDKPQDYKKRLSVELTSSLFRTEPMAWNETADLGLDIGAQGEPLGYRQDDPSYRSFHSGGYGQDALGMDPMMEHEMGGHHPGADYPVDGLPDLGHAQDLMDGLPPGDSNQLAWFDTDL
pIC50: −log10 of the molar value. Starred links: 1 amine or outer side, 2 acyl side, 3 side chain; linkers in the order of their positions; H or OH if unused. Positions of bridges follow the written chain, without caps; N, C: chain ends. Non-standard residues stand in square brackets, D forms with d. Primed or numbered codes have the meaning given here. PyrS2(3) = (S)-3-amino-1-((pent-4-en-1-yloxy)carbonyl)pyrrolidine-3-carboxylic acid, stapling residue, C=CCCCOC(=O)N1CC[C@@](N[*:1])(C(=O)[*:2])C1; PyrS2″ = (S)-3-amino-1-((pent-4-en-1-yloxy)carbonyl)pyrrolidine-3-carboxylic acid (stapling residue), C=CCCCOC(=O)N1CC[C@@](N[*:1])(C(=O)[*:2])C1; B5(18) = 2,2-bis(4-pentenyl)glycine (2-amino-2-(pent-4-en-1-yl)hept-6-enoic acid), stitching residue, C=CCCCC(CCCC=C)(N[*:1])C(=O)[*:2]; B5(4) = 2,2-bis(4-pentenyl)glycine = 2-amino-2-(pent-4-en-1-yl)hept-6-enoic acid (stitching residue), C=CCCCC(CCCC=C)(N[*:1])C(=O)[*:2]; PyrS2 = (S)-3-amino-1-((pent-4-en-1-yloxy)carbonyl)pyrrolidine-3-carboxylic acid, C=CCCCOC(=O)N1CC[C@@](N[*:1])(C(=O)[*:2])C1; MorphAsn = (S)-2-amino-4-morpholino-4-oxobutanoic acid, O=C(C[C@H](N[*:1])C(=O)[*:2])N1CCOCC1; B5 = 2-amino-2-(pent-4-en-1-yl)hept-6-enoic acid, C=CCCCC(CCCC=C)(N[*:1])C(=O)[*:2]; MeGln = N5-methyl-L-glutamine, CNC(=O)CC[C@H](N[*:1])C(=O)[*:2]; Phe(3-COOH) = N[C@@H](Cc1cccc(C(=O)O)c1)C(=O)O; Phe(2-Cl) = N[C@@H](Cc1ccccc1Cl)C(=O)O; Bta = N[C@@H](Cc1csc2ccccc12)C(=O)O; αAllylPro = C=CC[C@@]1(C(=O)O)CCCN1; tBuAla = CC(C)(C)C[C@H](N)C(=O)O; 3Thi = N[C@@H](Cc1ccsc1)C(=O)O; Cha = N[C@@H](CC1CCCCC1)C(=O)O; Ac5c = NC1(C(=O)O)CCCC1; Ac3c = NC1(C(=O)O)CC1
quantity-kind: pIC50

In the examples that follow, each entry is paired with its recorded pIC50.
binder	recorded-value
Ac-[αAllylPro]D[tBuAla][B5(4)]NT[Ac3c]AFN[PyrS2″][3Thi][Bta]Q-NH2 (staple 1-4, 4-11) [I-2492]	6.76
Ac-[αAllylPro]N[Cha][B5]DQQAFL[PyrS2]F[Bta][MorphAsn]-NH2 (staple 1-4, 4-11) [I-2504]	6.68
Ac-[αAllylPro]N[Cha][B5]DQ[MeGln]AFL[PyrS2]F[Bta][MorphAsn]-NH2 (staple 1-4, 4-11) [I-2502]	6.67

P = Ac-[αAllylPro]D[tBuAla][B5(4)]NT[Ac5c]AFN[PyrS2″][3Thi][Bta]Q-NH2 (staple 1-4, 4-11) [I-2493]
Q = Ac-[αAllylPro]D[tBuAla][B5(18)]D[Phe(3-COOH)]AAFA[PyrS2(3)][Phe(2-Cl)][Bta]S-NH2 (staple 1-4, 4-11) [I-1849]
Input line: Hi there! Just curious which has the higher pIC50 between P and Q . Refer to your chosen item by its label in the answer.
Output line: Q
(Q: 7.72, P: 6.57)
